Target: Human DYRK1A (Homo sapiens, UniProt Q13627)
Construct: purchased Invitrogen PV3997
Assay: DYRK1A Kinase TR-FRET (IMAP-Tb) Assay
Type: biochemical
Settings: TR-FRET (IMAP-Tb); ATP 70 μM; 37° C. 60 minutes; read-out: Enzyme IC50 (μM) DYRK1A
Structures can show the parent of a compound that is named as a salt.
# maps each entry to its log10 IC50
READOUT: log10 IC50 (log10 of the value in µM)

- CSc1ncc2cc(C(=O)Nc3cc(C(=O)NC(CN)c4ccccc4)ccc3Cl)c(=O)[nH]c2n1 (stereo not shown) [Example 105]: -2.02
- Cc1ncc2cc(C(=O)Nc3cc(C(=O)NC(CN)c4ccccc4)ccc3Cl)c(=O)[nH]c2n1 (stereo not shown) [Example 114, hydrochloride]: -1.43
- CC(C)(O)CNc1ncc2cc(C(=O)Nc3cc(C(=O)NC(CO)c4ccccc4)ccc3Cl)c(=O)[nH]c2n1 (stereo not shown) [Example 153]: -1.03
- COC(=O)c1ccc(Cl)c(NC(=O)c2cc3cnc(NCC(O)CO)nc3[nH]c2=O)c1 (stereo not shown) [Example 38]: -1.41
- COC(=O)c1ccc(Cl)c(NC(=O)c2cc3cnc(N(CCO)CCO)nc3[nH]c2=O)c1 [Example 39]: -1.89
- COc1ncc2cc(C(=O)Nc3cc(C(=O)NCc4cccc(Cl)c4)ccc3Cl)c(=O)[nH]c2n1 [Example 54]: -1.67
- NCCC(NC(=O)c1cc(NC(=O)c2cc3cnc(N4CCOCC4)nc3[nH]c2=O)c(Cl)cc1F)c1cccc(Cl)c1 (stereo not shown) [Example 160]: -1.27
- COC(=O)c1ccc(Cl)c(NC(=O)c2cc3cnc(N4CCCCC4)nc3[nH]c2=O)c1 [Example 34]: -1.30
- CN(C)c1ncc2cc(C(=O)Nc3cc(C(=O)NCc4cccc(Cl)c4)ccc3Cl)c(=O)[nH]c2n1 [Example 155]: -1.31
- CN1CCN(CCNc2ncc3cc(C(=O)Nc4cc(C(=O)NC(CN)c5ccccc5)ccc4Cl)c(=O)[nH]c3n2)CC1 (stereo not shown) [Example 139, hydrochloride]: -2.22
- O=C(NCc1cccc(Cl)c1)c1ccc(Cl)c(NC(=O)c2cc3cnc(OCCCN4CCOCC4)nc3[nH]c2=O)c1 [Example 80]: -2.34
- CN1CCN(CCOc2ncc3cc(C(=O)Nc4cc(C(=O)NCc5cccc(Cl)c5)ccc4Cl)c(=O)[nH]c3n2)CC1 [Example 87]: -1.21
- CCOC(=O)c1ccc(Cl)c(NC(=O)c2cc3cnc(OC)nc3[nH]c2=O)c1 [Example 82]: -0.33
- O=C(NCc1cccc(Cl)c1)c1ccc(Cl)c(NC(=O)c2cc3cnc(N4CCOCC4)nc3[nH]c2=O)c1 [Example 86]: -1.15
- O=C(NCc1cccc(Cl)c1)c1ccc(Cl)c(NC(=O)c2cc3cnc(NCCCN4CCOCC4)nc3[nH]c2=O)c1 [Example 90]: -1.95
- COc1ncc2cc(C(=O)Nc3cc(C(=O)NCc4ccccc4)ccc3C)c(=O)[nH]c2n1 [Example 27]: -0.42
